Listing of recorded IC50 by entry.
study_target: Ubiquitin carboxyl-terminal hydrolase 2 (Homo sapiens)
Sequence (O75604 whole entry): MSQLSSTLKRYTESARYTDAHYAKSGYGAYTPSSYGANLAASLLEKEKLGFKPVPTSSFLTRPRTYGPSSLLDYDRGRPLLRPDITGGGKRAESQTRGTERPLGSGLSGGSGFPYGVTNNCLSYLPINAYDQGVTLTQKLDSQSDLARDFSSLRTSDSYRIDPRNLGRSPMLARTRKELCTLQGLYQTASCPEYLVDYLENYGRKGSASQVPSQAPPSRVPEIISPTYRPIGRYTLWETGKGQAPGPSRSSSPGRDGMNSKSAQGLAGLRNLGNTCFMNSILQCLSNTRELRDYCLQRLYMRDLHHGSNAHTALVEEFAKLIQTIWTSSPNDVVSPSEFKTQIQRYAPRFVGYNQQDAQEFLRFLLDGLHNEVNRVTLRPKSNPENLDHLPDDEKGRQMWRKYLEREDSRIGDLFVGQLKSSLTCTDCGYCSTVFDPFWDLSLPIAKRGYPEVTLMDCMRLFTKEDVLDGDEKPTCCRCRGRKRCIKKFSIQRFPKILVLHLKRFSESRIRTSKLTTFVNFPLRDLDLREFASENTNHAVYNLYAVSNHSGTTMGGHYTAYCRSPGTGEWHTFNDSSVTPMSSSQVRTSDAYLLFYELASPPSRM
Report only the number, with the unit µM understood.

>>> reported_value("CC1=C(O)C(=O)C=C2C1=CC=C1[C@@]2(C)CC[C@@]2(C)[C@@H]3C[C@](C)(C(=O)O)CC[C@]3(C)CC[C@]12C")
28.7
>>> reported_value("CO[C@H]1/C=C/O[C@@]2(C)Oc3c(C)c(O)c4c(c3C2=O)C(=O)/C(=C/NN2CCN(C)CC2)C(=C4O)NC(=O)/C(C)=C\\C=C\\[C@H](C)[C@H](O)[C@@H](C)[C@@H](O)[C@@H](C)[C@H](OC(C)=O)[C@@H]1C")
21.2

Now consider a different compound.
query: // IC50 lookup, key: CC(=O)Oc1c2c(c(CC=C(C)C)c3c1C(=O)C1=C[C@@H]4CC5C(C)(C)OC(C/C=C(\C)C(=O)O)(C4=O)[C@@]15O3)OC(C)(CCC=C(C)C)C=C2 (some centres undefined)
result: 18.2

----------
study_target: Ubiquitin carboxyl-terminal hydrolase isozyme L5 (Homo sapiens, UniProt Q9Y5K5)
Sequence (Q9Y5K5 whole entry): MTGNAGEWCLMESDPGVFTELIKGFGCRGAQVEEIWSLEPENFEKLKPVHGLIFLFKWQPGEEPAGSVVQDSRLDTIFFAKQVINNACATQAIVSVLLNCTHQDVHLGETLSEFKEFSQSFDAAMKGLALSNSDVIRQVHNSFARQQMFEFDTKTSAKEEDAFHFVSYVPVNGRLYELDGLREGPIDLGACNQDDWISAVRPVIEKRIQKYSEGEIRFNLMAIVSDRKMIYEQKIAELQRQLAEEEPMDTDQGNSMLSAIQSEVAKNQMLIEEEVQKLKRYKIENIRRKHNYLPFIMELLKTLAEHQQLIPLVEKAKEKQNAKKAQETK
measurement_kind: pIC50
Kindly note that pIC50 refers to -log10 of the concentration in mol/L and answer with the value alone.

Known pIC50 results, listed for orientation:
>>> reported_value("CC1=C(O)C(=O)C=C2C1=CC=C1[C@@]2(C)CC[C@@]2(C)[C@@H]3C[C@](C)(C(=O)O)CC[C@]3(C)CC[C@]12C [Celastrol]")
4.25
>>> reported_value("CC(=O)ON=C1C(=O)N(Cc2cc(Cl)ccc2Cl)c2ccc(Cl)cc21")
4.79
>>> reported_value("CO[C@H]1/C=C/O[C@@]2(C)Oc3c(C)c(O)c4c(c3C2=O)C(=O)/C(=C/NN2CCN(C)CC2)C(=C4O)NC(=O)/C(C)=C\\C=C\\[C@H](C)[C@H](O)[C@@H](C)[C@@H](O)[C@@H](C)[C@H](OC(C)=O)[C@@H]1C [Rifampicin]")
4.20

Now consider a different compound.
query: Look up pIC50 with Ubiquitin carboxyl-terminal hydrolase isozyme L5 (Homo sapiens, UniProt Q9Y5K5) for this compound: CC(=O)Oc1c2c(c(CC=C(C)C)c3c1C(=O)C1=C[C@@H]4CC5C(C)(C)OC(C/C=C(\C)C(=O)O)(C4=O)[C@@]15O3)OC(C)(CCC=C(C)C)C=C2 (stereo not given in full)
result: 4.44

----------
study_target: Ubiquitin carboxyl-terminal hydrolase isozyme L3 (Homo sapiens, UniProt P15374)
Sequence (P15374 whole entry): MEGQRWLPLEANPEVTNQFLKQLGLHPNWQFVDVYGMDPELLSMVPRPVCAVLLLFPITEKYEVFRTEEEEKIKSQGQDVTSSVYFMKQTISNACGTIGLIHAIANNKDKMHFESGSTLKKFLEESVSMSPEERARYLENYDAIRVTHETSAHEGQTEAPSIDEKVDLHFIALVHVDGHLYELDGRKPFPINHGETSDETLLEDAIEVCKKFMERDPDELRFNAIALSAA
method: Fluorometric Ub-AMC Hydrolysis Assay
applied_conditions: pH 7.5; 25 °C
Listing of recorded IC50 by entry.

>>> reported_value("CO[C@H]1/C=C/O[C@@]2(C)Oc3c(C)c(O)c4c(c3C2=O)C(=O)/C(=C/NN2CCN(C)CC2)C(=C4O)NC(=O)/C(C)=C\\C=C\\[C@H](C)[C@H](O)[C@@H](C)[C@@H](O)[C@@H](C)[C@H](OC(C)=O)[C@@H]1C")
"24.8 µM"

query: // IC50 lookup, key: `CC(=O)ON=C1C(=O)N(Cc2cc(Cl)ccc2Cl)c2ccc(Cl)cc21`
result: 14.1 µM

query: // IC50 lookup, key: CC(=O)Oc1c2c(c(CC=C(C)C)c3c1C(=O)C1=C[C@@H]4CC5C(C)(C)OC(C/C=C(\C)C(=O)O)(C4=O)[C@@]15O3)OC(C)(CCC=C(C)C)C=C2 (stereo not given in full)
result: 15.4 µM

query: // IC50 lookup, key: `Cc1cnc(-c2ccccc2C(C)C)nc1NCc1ccc(-n2ccnn2)cc1`
result: > 114 µM

query: // IC50 lookup, key: `CC1=C(O)C(=O)C=C2C1=CC=C1[C@@]2(C)CC[C@@]2(C)[C@@H]3C[C@](C)(C(=O)O)CC[C@]3(C)CC[C@]12C`
result: 32.1 µM
